target: Xenopus histone H3/H4 tetramer (Xenopus, UniProt P84233 21-136; P62799 17-103); test: ITC
Kd values for the binders below.
property.measured: Kd (µM)

- binder: "ALRYMESSWKEQQKEEAKSLRLGMQEDLEEMRREEEEMQRRRAKKLKRR (domain or fragment) [hSpt2C (637–685) composed of only αC2]"
  unit.symbol: "µM"
  numeric.result: 2.3
- binder: "EPQEEISKHIREIFGYDRKKYKDESDYALRYMESS (domain or fragment) [hSpt2C (610–644) composed of only αC1]"
  unit.symbol: "µM"
  numeric.result: 55.6
